- Assay explanation: Protease stability in simulated intestinal fluids (FaSSIF) (Table 7)
- Assay type: in vitro ADME
- Condition details: fassif with pancreatin, 240 min, 37° C., read-out: Remaining percentage of peptide compound, FaSSIF 240 (min)
- Procedure: Studies were carried out in simulated intestinal fluid (SIF) and simulated gastric fluid (SGF) to evaluate gastric stability of the peptide compounds disclosed herein. […] To 76 μL of the Pepsin-SGF buffer, 4 μL of the 20 μM peptide stock solution was added and incubated at 37° C. […] The samples were centrifuged for 20 minutes and an aliquot of the supernatant 100 μL were transferred to a LoBind-MTP plate and analyzed by LCMS/MS. […]
Numbered stars: 1 amine (or outer) side, 2 acyl side, 3 side chain; on linkers, the order of the positions; unused ones are H or OH. Bridge positions count the residues as written; N and C are the ends. Square brackets hold non-standard residues; d marks the D form. Peptide text beside a SMILES is read from it. * marks the point of attachment. Lys(Me,(CH2)4NMe(CH2)4CO) = CN(CCCCC(=O)[*:3])CCCCN(C)CCCC[C@H](N[*:1])C(=O)[*:2]; Trp(1-Me) = Cn1cc(C[C@H](N)C(=O)O)c2ccccc21; 2Nal = N[C@@H](Cc1ccc2ccccc2c1)C(=O)O; 3Pal = N[C@@H](Cc1cccnc1)C(=O)O; Thp = NC1(C(=O)O)CCOCC1; Me2NCH2CH2 = CN(C)CC*; Aib = CC(C)(N)C(=O)O; Sar = CNCC(=O)O
Observed property: remaining at 4 h, 1 µM (%)
Report the value in % with no unit label.

// CN(C)CCOc1ccc(C[C@@H]2NC(=O)C3(CCOCC3)NC(=O)[C@H](CCC(N)=O)NC(=O)[C@H](Cc3cn(C)c4ccccc34)NC(=O)CCCCN(C)CCCCN(C)CCCC[C@@H](C(=O)NCC(=O)N[C@@H](Cc3cccnc3)C(=O)N(C)CC(N)=O)NC(=O)C(C)(C)NC(=O)[C@H](Cc3ccc4ccccc4c3)NC2=O)cc1 [compound 30] ([Trp(1-Me)]Q[Thp]Y(Me2NCH2CH2)[2Nal][Aib][Lys(Me,(CH2)4NMe(CH2)4CO)]G[3Pal][Sar]-NH2; lactam N-7) : remaining at 4 h, 1 µM value = 82
